Assay: Mouse brain:plasma partition, discrete i.p. dose
Conditions: male, C57BL/6J, in vivo, ip, 10 mg/kg
observedProperty: Kp at 0.25 h

**Q:** Requested field: Kp at 0.25 h. Item: Cn1cc(-c2ccc(Cn3cc(C(=O)N[C@H]4CCCC[C@@H]4O)c4c(F)cc(F)cc43)cn2)cn1 [Compound 28a]
**A:** 4.84

---

Target: rat M1 (Rattus norvegicus, UniProt P08482)
Sequence (P08482 whole entry): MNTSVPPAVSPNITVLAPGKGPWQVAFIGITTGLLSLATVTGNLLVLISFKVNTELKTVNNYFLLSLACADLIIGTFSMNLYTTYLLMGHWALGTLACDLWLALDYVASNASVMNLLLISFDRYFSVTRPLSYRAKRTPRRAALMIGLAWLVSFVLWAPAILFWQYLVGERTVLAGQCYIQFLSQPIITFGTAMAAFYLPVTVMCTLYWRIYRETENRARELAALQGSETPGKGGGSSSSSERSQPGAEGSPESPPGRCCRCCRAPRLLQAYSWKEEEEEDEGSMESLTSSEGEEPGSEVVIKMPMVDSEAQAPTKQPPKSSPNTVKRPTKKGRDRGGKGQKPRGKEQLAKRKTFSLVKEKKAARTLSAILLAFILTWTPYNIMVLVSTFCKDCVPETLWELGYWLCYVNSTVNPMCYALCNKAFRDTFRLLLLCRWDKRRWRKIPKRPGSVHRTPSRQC
Assay: Calcium mobilization, rM1-CHO cells, PAM mode
Format: cell-based
Conditions: rM1 pEC50, PAM mode, EC20 acetylcholine, ± SEM
observedProperty: EC50 (nM)
Form entry: value (nM) — number only.

**Q:** Quick one: EC50 of Cn1cc(-c2ccc(Cn3cc(C(=O)N[C@H]4CCCC[C@@H]4O)c4c(F)cc(F)cc43)cn2)cn1 [Compound 28a] ?
**A:** 138

---

Target: mouse M1 (Mus musculus)
Sequence (P12657 whole entry): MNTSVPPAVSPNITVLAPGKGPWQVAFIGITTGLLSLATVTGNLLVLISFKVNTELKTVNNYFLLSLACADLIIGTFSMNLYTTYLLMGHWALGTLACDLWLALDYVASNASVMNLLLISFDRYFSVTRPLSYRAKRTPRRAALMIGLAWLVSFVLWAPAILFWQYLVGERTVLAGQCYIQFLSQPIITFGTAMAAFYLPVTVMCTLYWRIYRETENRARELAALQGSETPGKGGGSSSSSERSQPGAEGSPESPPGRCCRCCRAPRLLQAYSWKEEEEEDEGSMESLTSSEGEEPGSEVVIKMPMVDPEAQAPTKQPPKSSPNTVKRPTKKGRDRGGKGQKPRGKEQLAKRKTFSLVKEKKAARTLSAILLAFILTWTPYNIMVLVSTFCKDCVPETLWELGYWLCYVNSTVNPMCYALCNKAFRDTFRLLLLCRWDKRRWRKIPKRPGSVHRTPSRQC
Experiment: Calcium mobilization, mM1-CHO cells, PAM mode
Assay type: cell-based
observedProperty: EC50 (µM)
Supply the numeric figure in µM, leaving out any unit text.

**Q:** For mouse M1 (Mus musculus), provide EC50 of Cn1cc(-c2ccc(Cn3cc(C(=O)N[C@H]4CCCC[C@@H]4O)c4c(F)cc(F)cc43)cn2)cn1 [Compound 28a] please.
**A:** 0.155
